- MEASUREMENT DESCRIPTION: Toxicity in BALB/c mouse assessed as weight change of liver at 10 to 50 mg/kg, po for 5 days a week for 2 weeks
- Format: organism-based
- CONDITION: in vivo, 336 h, dose 10-50 mg/kg
ASSAY METRIC: Activity

Output Activity of `NS(=O)(=O)Oc1ccc(-c2cn(-c3cc(Cl)cc(Cl)c3)nn2)cc1`
Non-Toxic

Output Activity of `NS(=O)(=O)Oc1ccc(-c2cn(-c3cc(F)cc(F)c3)nn2)cc1`
Non-Toxic

Output Activity of `NS(=O)(=O)Oc1ccc(-c2cn(-c3cccc(F)c3)nn2)cc1`
Non-Toxic

Output Activity of `NS(=O)(=O)Oc1ccc(-c2cn(-c3cccc(Cl)c3)nn2)cc1`
Non-Toxic

* * *

- MEASUREMENT DESCRIPTION: Toxicity in BALB/c mouse allografted with mouse 67NR cells assessed as increase in blood urea levels at 50 mg/kg, po for 5 days a week
- Assay type: organism-based
- CONDITION: in vivo, 168 h, time 1 weeks
ASSAY METRIC: Activity

Output Activity of `NS(=O)(=O)Oc1ccc(-c2cn(-c3cccc(F)c3)nn2)cc1`
Toxic

Output Activity of `NS(=O)(=O)Oc1ccc(-c2cn(-c3cc(Cl)cc(Cl)c3)nn2)cc1`
Toxic

Output Activity of `NS(=O)(=O)Oc1ccc(-c2cn(-c3cc(F)cc(F)c3)nn2)cc1`
Toxic

Output Activity of `NS(=O)(=O)Oc1ccc(-c2cn(-c3cccc(Cl)c3)nn2)cc1`
Toxic

* * *

- MEASUREMENT DESCRIPTION: Toxicity in BALB/c mouse allografted with mouse 67NR cells assessed as increase in monocyte count at 50 mg/kg, po for 5 days a week
- Format: organism-based
- CONDITION: in vivo, 168 h, time 1 weeks
ASSAY METRIC: Activity

Output Activity of `NS(=O)(=O)Oc1ccc(-c2cn(-c3cccc(Cl)c3)nn2)cc1`
Toxic

Output Activity of `NS(=O)(=O)Oc1ccc(-c2cn(-c3cc(F)cc(F)c3)nn2)cc1`
Toxic

Output Activity of `NS(=O)(=O)Oc1ccc(-c2cn(-c3cccc(F)c3)nn2)cc1`
Toxic

Output Activity of `NS(=O)(=O)Oc1ccc(-c2cn(-c3cc(Cl)cc(Cl)c3)nn2)cc1`
Toxic

* * *

- MEASUREMENT DESCRIPTION: Toxicity in BALB/c mouse allografted with mouse 67NR cells assessed as enlarged liver at 50 mg/kg, po for 5 days a week
- Format: organism-based
- CONDITION: in vivo, 168 h, time 1 weeks
ASSAY METRIC: Activity

Output Activity of `NS(=O)(=O)Oc1ccc(-c2cn(-c3cccc(F)c3)nn2)cc1`
Toxic

Output Activity of `NS(=O)(=O)Oc1ccc(-c2cn(-c3cc(Cl)cc(Cl)c3)nn2)cc1`
Toxic

Output Activity of `NS(=O)(=O)Oc1ccc(-c2cn(-c3cc(F)cc(F)c3)nn2)cc1`
Toxic

Origin of measurements: ChEMBL document CHEMBL5154773
